Measured GI50, listed per entry.
# Test system: T47D
# assay-text: NCI tumour cell line growth inhibition, 48 h
Activity calls are given as the source filed them. No stated cut-off is given here; in the data, active = GI50 up to about 1.1 µM and inactive = higher.

compound | GI50
N#CCc1nc(-c2cc3ccc(O)cc3oc2=O)cs1 | 36.7 µM (inactive)
COc1ccc(COCC[C@H](C)OC2OC(CO[Si](C)(C)C(C)(C)C)C(O)C(O)C2O)cc1 (some centres not stated) | > 100 µM (inactive)
O=C(CCc1ccccc1)ON1C(=S)NC(c2ccccc2)(c2ccccc2)C1=S | 41.6 µM (inactive)
CCCCCCCC(CC(=O)O)OC(=O)CC(CCCCCCC)OC1OC(C)C(O)C(O)C1OC1OC(C)C(O)C(O)C1O (configuration not stated) | > 100 µM (inactive)
O=C1OC(=O)C2C1C(c1ccccc1[N+](=O)[O-])C=C(c1ccco1)N2c1ccncc1 (configuration not stated) | 4.97 µM (inactive)
CC#CCOC(=O)c1ccccc1OC(C)=O | > 100 µM (inactive)
Cc1ccc(C2=Nc3ccccc3SC(c3cccc([N+](=O)[O-])c3)C2)cc1 (configuration not stated) | 10.7 µM (inactive)

----------
# Test system: KM12
# assay-text: NCI tumour cell line growth inhibition, 48 h
Calls of active or inactive are those of the source. Rule as the data show it: active = GI50 up to about 1.1 µM and inactive = higher.

compound | GI50
CCSc1nc(N2CCOCC2)c2cn[nH]c2n1 | 58.9 µM (inactive)
O=[N+]([O-])c1ccc(NN/N=N/c2ccc(-c3nc4ccccc4s3)cc2)c([N+](=O)[O-])c1 | 27.5 µM (inactive)
CC1(C)CC2(S(=O)(=O)c3ccccc3)ON1CC2S(=O)(=O)c1ccccc1 (stereo not drawn) | > 100 µM (inactive)

----------
# System: MDA-MB-435
# assay-text: NCI tumour cell line growth inhibition, 48 h
Active and inactive are the calls of the source. Rule as the data show it: active = GI50 up to about 1.1 µM and inactive = higher.

molecule | GI50
O=C(CC(NC(=O)C(F)(F)F)C(=O)O)OCc1ccccc1 (stereo unspecified) | > 100 µM (inactive)
N#CCc1nc2cc(C(F)(F)F)ccc2s1 | 40.4 µM (inactive)
CCOC(=O)c1nc2ccc(C(F)(F)F)cc2nc1Oc1ccc(C#N)cc1 | 42.9 µM (inactive)
N#CC(Cc1ccccc1)N(CCC1=CCCCC1)Cc1ccccc1 (stereo unspecified) | 22 µM (inactive)
COc1nc(OC)nc(-c2cccc(F)c2)n1 | 15 µM (inactive)
C[C@@](O)(/C=C/[C@H]1CC=CC(=O)O1)[C@@H](C[C@@H](O)\C=C/C=C\C=C\CO)OP(=O)(O)O [FOSTRIECIN SODIUM] | 1.28 µM (inactive)

----------
# Lookup of reported GI50 keyed by entry
# System: PC-3
# assay-text: NCI tumour cell line growth inhibition, 48 h
Activity calls are given as the source filed them. Rule as the data show it: active = GI50 up to about 1.1 µM and inactive = higher.
assay-readout: GI50

compound | data-value
O=C(CCN1CCCCC1)N1CCc2c([nH]c3ccccc23)C1c1cccnc1 (stereo not given) | 57 µM (inactive)
Nc1c(Cl)c([N+](=O)[O-])cc2c1OCCCCO2 | > 100 µM (inactive)
O=c1[nH]c2cc([N+](=O)[O-])c(N(CCO)CCO)c([N+](=O)[O-])c2[nH]1 | 44.4 µM (inactive)
CC(C)C1CNC(=O)C2(/C=N/C(C(C)C)CNC(=O)C3(/C=N/1)CCCO3)CCCO2 (stereo not given) | > 10 µM (inactive)
N#Cc1nc(CSCc2ccccc2)oc1N | > 100 µM (inactive)

----------
# Tested on: XF498
# assay-text: NCI tumour cell line growth inhibition, 48 h
Activity calls are given as the source filed them. No stated cut-off is given here; in the data, active = GI50 up to about 1.1 µM and inactive = higher.
assay-readout: GI50

smiles | assay-readout | data-value
O=P(CN1CCOCC1)(c1ccccc1)c1ccccc1 | GI50 | > 100 µM (inactive)
COc1ccc(OC)c2c1C(=O)C(Cl)=C(Cl)C2=O | GI50 | 1.61 µM (inactive)
[O-][n+]1c2c([n+]([O-])c3ccccc31)CCCCCCCCCC2 | GI50 | > 100 µM (inactive)
NC(=O)Nc1cc(O)ccc1/N=N/c1ccc(S(=O)(=O)Nc2ccccn2)cc1 | GI50 | > 100 µM (inactive)
C=CC(OCC)(OCC)OCC | GI50 | > 100 µM (inactive)
COc1ccc(-c2cnoc2-c2ccc(OC)c(OC)c2)cc1OC | GI50 | 1.75 µM (inactive)

----------
# System: NCI-H23
# assay-text: NCI tumour cell line growth inhibition, 48 h
Activity calls are given as the source filed them. No stated cut-off is given here; in the data, active = GI50 up to about 1.1 µM and inactive = higher.
Labels: active, inactive

molecule | label-value
CN(C)CCCNc1ccc2ncn3c4ccccc4c(=O)c1c23 | inactive
O=C1Nc2ccc(S(=O)(=O)N(CCO)CCO)cc2/C1=C1/Nc2ccccc2C1=O | inactive
C/C(=C\c1ccccc1)C(=O)NCc1ccc(C(=O)NCCC(C)C)cc1 | inactive
COC(=O)c1c2c(cc3c1CC1(Cc4cc5c(cc4C1=O)CCC5)C3)CCC2 (stereo unspecified) | inactive
CCC/C=C/C=C\C(=O)O[C@@H]1[C@@H](C)[C@]2(O)[C@@H]3C=C(C)C(=O)[C@H]3CC(COC(C)=O)=C[C@H]2[C@@H]2C(C)(C)[C@]12OC(C)=O | inactive
CCOC(=O)CNC(=O)N(CC)C12CC3CC(CC(C3)C1)C2 | inactive
CCOc1ccc(/N=C\c2ccc3cc(C)ccc3n2)cc1 | inactive
COC(=O)c1c(O)c(C#N)c2[nH]c3ccccc3n2c1=O | inactive
O=C1C2c3[nH]c4ccccc4c3C3CCCCC3C2C(=O)N1c1ccccc1 (stereo unspecified) | inactive
Oc1ncnc2c1sc(=S)n2-c1ccccc1 | inactive
CCN(CC)[C@@H]1c2cc3c(cc2C(c2cc(OC)c(O)c(OC)c2)C2C(=O)CO[C@@H]21)OCO3 (stereo partly specified) | inactive
COc1ccc(OC)c2c1C(=O)C(Cl)=C(Cl)C2=O | inactive
C/C(=N\NC(N)=S)C(CN1CCCCC1)C(C1=C(O)c2ccccc2OC1)c1ccccc1 (stereo unspecified) | inactive
O=C1c2cc([N+](=O)[O-])sc2C(=O)c2ccsc21 | active
Nc1c(-c2cccc3ccccc23)c2ccc([N+](=O)[O-])cc2c(=O)n1-c1nc2ccccc2s1 | inactive
CC(C)C1CNC(=O)C2(/C=N/C(C(C)C)CNC(=O)C3(/C=N/1)CCCO3)CCCO2 (stereo unspecified) | inactive
CC(CN(C)C)C(=O)c1ccccc1 (stereo unspecified) | inactive
COC(=O)C1(Cc2ccc3c(c2)CCC3)Cc2ccccc2C1 | inactive
Cc1c(C)c([N+](=O)[O-])c2c(c1N)C(=O)c1ccccc1C2=O | inactive
O=C(O)Cn1ccc(=O)c2cc([N+](=O)[O-])ccc21 | inactive
O=Cc1ccccc1COC(=O)c1cc(C(=O)OCc2ccccc2C=O)c(C(=O)OCc2ccccc2C=O)cc1C(=O)OCc1ccccc1C=O | inactive
CCN(CC)CCNc1ccc2ncn3c4ccc(O)cc4c(=O)c1c23 | active
CCCCCCCCOCC(COC(=O)CCCCCCC)OC(=O)CCCCCCC (stereo unspecified) | inactive
Clc1nc(Cl)c(Cl)c(Cl)n1 | inactive
CC1=CC(=O)/C(=C/NC(=O)NN)C(=O)O1 | inactive
CC(=O)c1ccc(O)c(CN(C2CCCCC2)C2CCCCC2)c1O | inactive
O=c1c2c(c1=O)-c1ccccc1CN2 | inactive
CC(=O)O[C@H]1C(=O)[C@@]2(C)[C@H]([C@H](OC(=O)c3ccccc3)[C@]3(O)C[C@H](OC(=O)[C@H](O)[C@@H](NC(=O)CC(C)(C)C)c4ccccc4)C(C)=C1C3(C)C)C1(OC(C)=O)CO[C@@H]1C[C@@H]2O (stereo partly specified) | active
CCC1C[N+]23CCc4c([nH]c5ccccc45)C2CC1CC3 (stereo unspecified) | inactive
COC(=O)c1ccc(-n2c(C)nc(=O)c(-c3ccccc3)c2C)cc1 | inactive
CC(=O)C1=C(C)N(c2ccccc2)C2(O)C=CC(O)=C3C(=O)c4ccccc4C(=O)C312 (stereo unspecified) | inactive

----------
# Test system: 786-0
# assay-text: NCI tumour cell line growth inhibition, 48 h
Activity calls are given as the source filed them. Rule as the data show it: active = GI50 up to about 1.1 µM and inactive = higher.

compound | GI50
CC(C)(C)[Si](C)(C)OCC1OC(n2cnc3c(=O)[nH]cnc32)CC1O (stereo not drawn) | > 100 µM (inactive)
CC(NC(NC(C)C12CC3CC(CC(C3)C1)C2)=C(C(Cl)=C(Cl)Cl)[N+](=O)[O-])C12CC3CC(CC(C3)C1)C2 (stereo not drawn) | 13 µM (inactive)
O=C(CC(NC(=O)C(F)(F)F)C(=O)O)OCc1ccccc1 (stereo not drawn) | > 100 µM (inactive)

----------
# Tested on: SK-MEL-2
# assay-text: NCI tumour cell line growth inhibition, 48 h
Activity calls are given as the source filed them. Rule as the data show it: active = GI50 up to about 1.1 µM and inactive = higher.
// reported GI50 for each item listed
assay-readout: GI50

compound | test-system | data-value
COc1ccc(/C=C/c2cc(O)cc(OC)c2)cc1 | SK-MEL-2 | > 100 µM (inactive)
O=c1oc2ccccc2cc1P(=O)(O)O | SK-MEL-2 | > 100 µM (inactive)
N#Cc1sc2c(c1OC(=O)c1ccco1)c(=O)n(-c1ccccc1)c(=S)n2-c1ccccc1 | SK-MEL-2 | 28.8 µM (inactive)
C=C(NC(=O)C(=C)NC(=O)c1csc(C2=NC3c4csc(n4)C4NC(=O)c5csc(n5)C(C(C)(O)C(C)O)NC(=O)C5CSC(=N5)/C(=C/C)NC(=O)C(C(C)O)NC(=O)c5csc(n5)C3(CC2)NC(=O)C(C)NC(=O)C(=C)NC(=O)C(C)NC(=O)C(C(C)CC)NC2C=Cc3c(C(C)O)cc(nc3C2O)C(=O)OC4C)n1)C(N)=O (stereo unspecified) | SK-MEL-2 | 1.65 µM (inactive)
CCO/C=N/C1=C(C#N)C(c2ccc(Cl)cc2)c2c(-c3ccccc3)nn(-c3ccccc3)c2O1 (stereo unspecified) | SK-MEL-2 | 11.7 µM (inactive)
O=C1c2ccccc2C(=O)c2sc(Nc3cccc(Cl)c3)nc21 | SK-MEL-2 | 1.79 µM (inactive)
CCCCCC(=O)OC[n+]1ccc(-c2c(COC(=O)NC(C)C)c(COC(=O)NC(C)C)c3n2CCC3)cc1 | SK-MEL-2 | > 100 µM (inactive)
C=CC(OCC)(OCC)OCC | SK-MEL-2 | > 100 µM (inactive)
C/C(=N\NC(N)=S)C(CN1CCCCC1)C(C1=C(O)c2ccccc2OC1)c1ccccc1 (stereo unspecified) | SK-MEL-2 | > 100 µM (inactive)
CC(C)C(N)(C(=O)O)c1ccccc1 (stereo unspecified) | SK-MEL-2 | > 100 µM (inactive)
O=P1(Oc2ccccc2)C(c2ccccc2)C(c2ccccc2)=NN1c1ccccc1 (stereo unspecified) | SK-MEL-2 | 15.9 µM (inactive)
COc1ccc(/N=C(/SS/C(=N/c2ccc(OC)cc2)c2ccc([N+](=O)[O-])o2)c2ccc([N+](=O)[O-])o2)cc1 | SK-MEL-2 | 2.08 µM (inactive)
CN(C)CCN(/C(=N/c1ccccc1)N1CCCC1)c1ccccc1 | SK-MEL-2 | > 100 µM (inactive)
N#Cc1nc(CSCc2ccccc2)oc1N | SK-MEL-2 | > 100 µM (inactive)
COC(=O)c1c2c(cc3c1CC1(Cc4cc5c(cc4C1=O)CCC5)C3)CCC2 (stereo unspecified) | SK-MEL-2 | > 100 µM (inactive)
O=P(CN1CCOCC1)(c1ccccc1)c1ccccc1 | SK-MEL-2 | > 100 µM (inactive)
N#Cc1c(C#N)c(SSc2c(C#N)c(C#N)c(N)n2-c2ccccc2)n(-c2ccccc2)c1N | SK-MEL-2 | 21.1 µM (inactive)
C/C(=N\NC(=S)NNC(=S)N(C)c1ccccc1)c1ccccn1 | SK-MEL-2 | 5.68 µM (inactive)
COc1cc(O)ccc1C(=S)SC | SK-MEL-2 | > 100 µM (inactive)
CCOP(=O)(OCC)C(C)(CC)NC1=NC(C(F)(F)F)(C(F)(F)F)NC(=O)N1 (stereo unspecified) | SK-MEL-2 | > 100 µM (inactive)
N=C(N)NS(=O)(=O)c1ccc(NC(=O)c2ccc(Cl)c3c(Nc4ccc(S(=O)(=O)N=C(N)N)cc4)c4ccccc4nc23)cc1 | SK-MEL-2 | 39.5 µM (inactive)

Ref: ChEMBL document CHEMBL1201862
